tested on: SK-OV-3; assay: NCI tumour cell line growth inhibition, 48 h
Active and inactive are the calls of the source. No stated cut-off is given here; in the data, active = GI50 up to about 1.1 µM and inactive = higher.
Provide the reported GI50 of each item.

Quick one: GI50 for Cc1ccc([S+]([O-])C(C)C(Cl)c2ccccc2)cc1 (stereo not drawn) ?
> 100 µM (inactive)

And then `CC(=O)c1cc(S(=O)(=O)c2ccc(O)c(C(C)=O)c2)ccc1O` , what is it?
66.7 µM (inactive)

And then O=C(NCCC1CN(S(=O)(=O)C(F)(F)F)c2ccccc21)OCc1ccccc1 (stereo not drawn) , what is it?
> 100 µM (inactive)

And then `CC(C)C/C(CC(=O)CCC(=O)Nc1ccccc1[N+](=O)[O-])=N\NC(=O)c1cc2ccccc2cc1O` , what is it?
79.6 µM (inactive)

And then C=C1C(C2(C)C=CC(=O)OC3(C)COC(=O)CC32)C(OC=O)C(OC(=O)C(O)C(C)CC)C2(C)C(c3ccoc3)CC(OC(C)=O)C12O (stereo not drawn) , what is it?
> 100 µM (inactive)

And then `COC(=O)[C@H](CNC(=O)/C=C/c1ccc(OC(C)=O)c(OC(C)=O)c1)NC(=O)/C=C/c1ccc(OC(C)=O)c(OC(C)=O)c1` , what is it?
> 100 µM (inactive)

And then `COc1ccc2nc(-c3ccccn3)cc(O)c2c1` , what is it?
52.7 µM (inactive)

And then `O=c1c2ccccc2nc(-c2ccccc2)n1NC(=S)Nc1ccc(Cl)cc1` , what is it?
> 100 µM (inactive)
